Hey, just so you know, these numbers are from patent US20200199204A1.

- tgt: HIV-1 Env of PVO.04 (HIV-1)
- experiment-summary: cell-based or functional assay
readout: neutralization IC50

Query block: Report neutralization IC50 for CAP256-VRC26.01 (antibody, V domains shown) VH: EVQVVESGGGVVQPGRSLRLSCTASGFTFSNFAMGWVRQAPGKGLEWVAFISSDGSNKNYGDSVKGRFTISRDNSKNTVFLQMNSLRVEDTALYYCAKDVGDYKSDEWGTEYYDISISYPIQDPRAMVGAFDLWGQGTMVTVSP VL: QSVLTQPPSVSAAPGQKVTISCSGSSSTIGNNYVSWYRLLPGTAPKLLIYKNDNRPSGIPDRFSGSKSGTSATLGISGLQTGDEADYYCGTWDTSLSGGGVFGTGTKVTVLG please.
Result block: > 50 µg/mL

Query block: Report neutralization IC50 for CAP256-VRC26.12 (antibody, V domains shown) VH: EVQLVQSGGGVVQPGRSLRLSCAAPYFEFGRYGFHWVRQAPGKGLEWVASISFAGRDYYHSPSVWGRFTISRDNSKNTLYLQMNSLRIEDTALYFCARDLRESECEEWESDYYDFGKKGPCVKPRGVAGGLDLWGQGTMVIVSS VL: QSVLTQPPSVSTAPGQTVTVSCSGGTSNTGNNFVSWYQHLPGTAPKLLIYENNKRPLGVPDRFSGAKSGTSATLAITGLQTGDEGDYYCATWSGSLNIGTGTKVSVLG please.
Result block: > 50 µg/mL

Query block: Report neutralization IC50 for CAP256-VRC26.03 (antibody, V domains shown) VH: EVQLVESGGGVVQPGKSLRLSCAASRFSFNRYGMHWVRQAPGKGLEWVAAISYDGTDKYHADKVWGRFTISRDNSKNTLYLQMNSLRAEDTALYYCAKDLREDECEEWWSDYYDFGKQLPCRKSRGVAGIFDGWGQGTMVTVSS VL: QSVLTQPPSVSAAPGQKVTISCSGSSSNIGNNFVSWYQQRPGTAPKILIYENNKRPSETPDRFSGSKSGTSATLAITGLQTADEAEYYCATWSASLSSARVFGTGTRITVLG please.
Result block: > 50 µg/mL
